Ref: patent US20250042994A1

TGT: T1, murine CD19 protein (murine, UniProt P25918 17-287, limits assumed)
T1 construct: bought protein; also called commercial murine CD19
T1 sequence (looked up): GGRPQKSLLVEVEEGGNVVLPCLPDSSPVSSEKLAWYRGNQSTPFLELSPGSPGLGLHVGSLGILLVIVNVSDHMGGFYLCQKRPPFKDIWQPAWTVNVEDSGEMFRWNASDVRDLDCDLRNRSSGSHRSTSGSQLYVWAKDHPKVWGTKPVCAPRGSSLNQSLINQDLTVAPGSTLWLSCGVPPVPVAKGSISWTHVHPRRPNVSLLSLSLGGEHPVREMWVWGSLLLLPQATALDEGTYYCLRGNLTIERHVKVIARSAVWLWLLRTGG
ASSAY_METHOD_TEXT: ELISA

{"BINDER": "F3.121.4-L2H1 (antibody, mouse IgG1, kappa, V domains shown, murine IgG1 constant regions; also called humanized antibody of F3.121.4) VH: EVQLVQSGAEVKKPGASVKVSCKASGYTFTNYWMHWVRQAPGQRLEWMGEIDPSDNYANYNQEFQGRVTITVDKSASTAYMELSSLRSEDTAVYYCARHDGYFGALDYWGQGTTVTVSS VL: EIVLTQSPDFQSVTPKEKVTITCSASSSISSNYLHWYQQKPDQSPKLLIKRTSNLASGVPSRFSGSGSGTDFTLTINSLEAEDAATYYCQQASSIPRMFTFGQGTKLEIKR", "binding result": "no binding"}
{"BINDER": "F3.121.4-L3H2 (antibody, mouse IgG1, kappa, V domains shown, murine IgG1 constant regions; also called humanized antibody of F3.121.4) VH: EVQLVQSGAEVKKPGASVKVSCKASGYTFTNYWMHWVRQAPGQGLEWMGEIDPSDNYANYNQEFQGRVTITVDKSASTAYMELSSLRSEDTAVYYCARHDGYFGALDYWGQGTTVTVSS VL: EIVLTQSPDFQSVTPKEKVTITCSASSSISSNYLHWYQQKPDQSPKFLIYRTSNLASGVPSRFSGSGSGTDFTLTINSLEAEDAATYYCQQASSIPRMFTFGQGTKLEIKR", "binding result": "no binding"}
{"BINDER": "F3.121.4-L2H2 (antibody, mouse IgG1, kappa, V domains shown, murine IgG1 constant regions; also called humanized antibody of F3.121.4) VH: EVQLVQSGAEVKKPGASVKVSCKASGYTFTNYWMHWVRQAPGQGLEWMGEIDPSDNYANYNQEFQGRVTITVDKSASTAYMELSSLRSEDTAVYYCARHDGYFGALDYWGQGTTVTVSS VL: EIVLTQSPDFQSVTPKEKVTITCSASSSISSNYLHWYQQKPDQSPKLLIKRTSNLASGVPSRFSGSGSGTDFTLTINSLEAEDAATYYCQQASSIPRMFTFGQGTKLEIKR", "binding result": "no binding"}
